Measured remaining activity at 0.1 µM accompanies every entry in the list below.
- target: GSPT1 (Homo sapiens)
- Construct: endogenous in cells; host or cells: MHH-CALL-4
- Sequence (P15170 whole entry): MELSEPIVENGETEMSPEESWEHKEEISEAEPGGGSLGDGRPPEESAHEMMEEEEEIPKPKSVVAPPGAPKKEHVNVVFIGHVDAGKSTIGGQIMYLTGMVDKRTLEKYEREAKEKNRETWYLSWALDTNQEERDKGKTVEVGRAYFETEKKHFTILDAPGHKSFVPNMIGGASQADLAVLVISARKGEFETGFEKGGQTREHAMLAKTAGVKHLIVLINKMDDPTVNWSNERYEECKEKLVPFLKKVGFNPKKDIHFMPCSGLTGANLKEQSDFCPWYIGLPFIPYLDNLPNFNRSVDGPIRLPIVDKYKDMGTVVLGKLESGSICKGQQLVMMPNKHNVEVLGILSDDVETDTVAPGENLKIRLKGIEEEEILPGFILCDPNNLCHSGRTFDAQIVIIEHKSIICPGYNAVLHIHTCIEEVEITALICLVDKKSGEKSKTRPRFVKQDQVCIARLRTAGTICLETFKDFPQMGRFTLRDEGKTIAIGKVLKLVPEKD
- test: Western blot assay, GSPT1 neosubstrate degradation
- Type: cell-based
- conditionInfo: MHHCALL4; 100 nM, 24 h; MHH-CALL-4 cells; vehicle control = 100%
Answer format: numeric, % implied, no suffix.

These recorded examples may help you get a feel for the data.
- compound: "CCS(=O)(=O)N1CC(CC#N)(n2cc(-c3nc(Nc4ccc(C(=O)NCCCCCNc5ccc(C6CCC(=O)NC6=O)cc5)cc4)nc4[nH]ccc34)cn2)C1 (centres unmarked) [Compound 7]"
  valueUnits: "%"
  result: 63
- compound: "CCS(=O)(=O)N1CC(CC#N)(n2cc(-c3nc(Nc4ccc(C(=O)N5CCC(CN6CCN(c7ccc(C8CCC(=O)NC8=O)cc7)CC6)CC5)cc4)nc4[nH]ccc34)cn2)C1 (centres unmarked) [Compound 49]"
  valueUnits: "%"
  result: 74
- compound: "CCS(=O)(=O)N1CC(CC#N)(n2cc(-c3nc(Nc4ccc(C(=O)NCCCCCCCNc5cccc(C6CCC(=O)NC6=O)c5)cc4)nc4[nH]ccc34)cn2)C1 (centres unmarked) [Compound 34]"
  valueUnits: "%"
  result: 74

Now for the compound whose remaining activity at 0.1 µM we want.
Prompt: Any idea what remaining activity at 0.1 µM was measured for CCS(=O)(=O)N1CC(CC#N)(n2cc(-c3nc(Nc4ccc(C(=O)NCCCCN5CCN(c6ccc7c(c6)C(=O)N(C6CCC(=O)NC6=O)C7=O)CC5)cc4)nc4[nH]ccc34)cn2)C1 (centres unmarked) [Compound 20] ?
Response: 128

----------
Measured remaining activity at 0.1 µM accompanies every entry in the list below.
- target: JAK3 (Homo sapiens, UniProt P52333)
- Construct: endogenous in cells; host or cells: MHH-CALL-4
- Sequence (P52333 1-1124): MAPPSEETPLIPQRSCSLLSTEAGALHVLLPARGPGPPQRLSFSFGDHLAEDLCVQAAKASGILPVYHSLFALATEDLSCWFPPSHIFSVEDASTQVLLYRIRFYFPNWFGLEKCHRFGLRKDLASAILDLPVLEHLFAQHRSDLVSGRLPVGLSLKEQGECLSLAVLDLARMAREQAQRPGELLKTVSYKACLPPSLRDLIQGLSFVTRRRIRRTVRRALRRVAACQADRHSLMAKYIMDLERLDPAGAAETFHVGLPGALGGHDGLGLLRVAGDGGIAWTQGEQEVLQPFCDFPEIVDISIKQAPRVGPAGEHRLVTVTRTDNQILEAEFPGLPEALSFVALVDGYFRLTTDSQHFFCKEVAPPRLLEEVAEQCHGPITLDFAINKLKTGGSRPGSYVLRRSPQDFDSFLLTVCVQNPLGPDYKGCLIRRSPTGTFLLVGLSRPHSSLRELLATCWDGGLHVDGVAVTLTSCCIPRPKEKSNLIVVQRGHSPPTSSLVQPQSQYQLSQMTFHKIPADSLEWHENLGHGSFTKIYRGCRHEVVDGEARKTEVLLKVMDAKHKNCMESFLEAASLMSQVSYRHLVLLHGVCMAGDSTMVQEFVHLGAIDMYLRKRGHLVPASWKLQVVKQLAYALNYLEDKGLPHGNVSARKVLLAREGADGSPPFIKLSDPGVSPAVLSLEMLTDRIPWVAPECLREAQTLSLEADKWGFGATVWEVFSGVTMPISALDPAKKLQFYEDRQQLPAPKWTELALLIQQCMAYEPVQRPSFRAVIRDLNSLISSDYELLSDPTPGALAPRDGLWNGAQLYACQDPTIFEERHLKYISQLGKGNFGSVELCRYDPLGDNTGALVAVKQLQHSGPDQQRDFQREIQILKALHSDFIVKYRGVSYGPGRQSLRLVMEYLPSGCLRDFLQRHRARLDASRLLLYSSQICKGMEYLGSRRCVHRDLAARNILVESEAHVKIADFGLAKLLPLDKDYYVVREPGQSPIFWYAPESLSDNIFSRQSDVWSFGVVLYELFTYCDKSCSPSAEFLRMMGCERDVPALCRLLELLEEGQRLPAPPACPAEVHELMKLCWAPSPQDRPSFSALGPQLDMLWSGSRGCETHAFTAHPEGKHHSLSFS
- test: Western blot assay, JAK3 protein degradation
- Assay type: cell-based
- conditionInfo: MHHCALL4; 100 nM, 24 h; MHH-CALL-4 cells; vehicle control = 100%; read-out: Target Protein Degradation (% remaining at 100 nM, 24 h) JAK3
The reply must contain the numeric value and, after it, the unit.

- molecule: "CCS(=O)(=O)N1CC(CC#N)(n2cc(-c3nc(Nc4ccc(C(=O)NCCN5CCN(c6ccc(C7CCC(=O)NC7=O)cc6)CC5)cc4)nc4[nH]ccc34)cn2)C1 (stereo not drawn)"
  remaining activity at 0.1 µM: "58%"
- molecule: "CCS(=O)(=O)N1CC(CC#N)(n2cc(-c3nc(Nc4ccc(C(=O)NCCCCCCNc5cccc(C6CCC(=O)NC6=O)c5)cc4)nc4[nH]ccc34)cn2)C1 (stereo not drawn)"
  remaining activity at 0.1 µM: "79%"
- molecule: "CCCn1cc(-c2nc(Nc3ccc(C(=O)NCCCCOc4ccc(C5CCC(=O)NC5=O)cc4)cc3)nc3[nH]ccc23)cn1 (stereo not drawn)"
  remaining activity at 0.1 µM: "79%"
- molecule: "N#CC[C@H](C1CCCC1)n1cc(-c2nc(Nc3ccc(C(=O)NCCCN4CCN(c5ccc(C6CCC(=O)NC6=O)cc5)CC4)cc3)nc3[nH]ccc23)cn1 (stereo partly drawn)"
  remaining activity at 0.1 µM: "41%"
- molecule: "N#CC[C@H](C1CCCC1)n1cc(-c2nc(Nc3ccc(C(=O)NCCCCOc4ccc(C5CCC(=O)NC5=O)cc4)cc3)nc3[nH]ccc23)cn1 (stereo partly drawn)"
  remaining activity at 0.1 µM: "63%"
- molecule: "CCCn1cc(-c2nc(Nc3ccc(C(=O)NCCN4CCN(c5ccc6c(c5)C(=O)N(C5CCC(=O)NC5=O)C6=O)CC4)cc3)nc3[nH]ccc23)cn1 (stereo not drawn)"
  remaining activity at 0.1 µM: "53%"

Prompt: Any idea what remaining activity at 0.1 µM was measured for CCS(=O)(=O)N1CC(CC#N)(n2cc(-c3nc(Nc4ccc(C(=O)NCCCCCCCNc5cccc(C6CCC(=O)NC6=O)c5)cc4)nc4[nH]ccc34)cn2)C1 (stereo not drawn) ?
Response: 69%

Prompt: Any idea what remaining activity at 0.1 µM was measured for CCS(=O)(=O)N1CC(CC#N)(n2cc(-c3nc(Nc4ccc(C(=O)NCCCCN5CCN(c6ccc(C7CCC(=O)NC7=O)cc6)CC5)cc4)nc4[nH]ccc34)cn2)C1 (stereo not drawn) ?
Response: 112%

Prompt: Any idea what remaining activity at 0.1 µM was measured for CCS(=O)(=O)N1CC(CC#N)(n2cc(-c3nc(Nc4ccc(C(=O)NCCCNC(=O)COc5cccc(C6CCC(=O)NC6=O)c5)cc4)nc4[nH]ccc34)cn2)C1 (stereo not drawn) ?
Response: 71%
